# System: H1299 cells
# PROTOCOL_NOTES: MTT cell viability, H1299
# Assay type: cell-based
# SETTINGS: Homo sapiens, NCI-H1299; H1299, Lung; MTT at 24 hours; Table 3; read-out: IC50
READOUT_NAME: IC50 (nM)

(1) CC(=O)c1cc2c(o1)C(=O)c1cc(Cl)ccc1C2=O
(2) O=C(c1ccccc1)c1cc2c(o1)C(=O)c1ccccc1C2=O
// compare measured IC50 between 1 and 2 ; output the lower one Indicate your choice by writing its label.
1
(1: 250 nM, 2: 520 nM)

====

# Test system: CD44^low FaDu cells
# PROTOCOL_NOTES: Anti-CSC MTT assay, CD44low FaDu cells
# Assay type: cell-based
# SETTINGS: Homo sapiens, 48 h
Consider the following molecules and their measured IC50 readings.
Write the number in µM without appending the unit.

# annotated cases, reported IC50 shown
# query: IC50 of entry "C=Cc1cc2c(o1)C(=O)c1cc(F)ccc1C2=O"
2.25

Endpoint output: IC50 of CC(O)c1cc2c(o1)C(=O)c1cc(F)ccc1C2=O (stereo not drawn) . Value?
2.49

Could you now look at the following molecule, please?
Reported IC50 for O=C1c2ccccc2C(=O)c2oc(C(O)c3ccccc3)cc21 (stereo not drawn) : what is it?
3.68
